half-life by entry:
# Assay procedure: Pharmacokinetic test in SD rats
# Conditions: male, Sprague-Dawley (SD), rat, in vivo, iv, 2 mg/kg
The answer consists of two parts: a number and, after it, its unit.

CC[C@@]1(O)C(=O)OCc2c1cc1n(c2=O)Cc2c-1nc1cc(F)c(C)c3c1c2C(NC(=O)C[C@@H](C)O)CCC3 (single isomer, unassigned) [Compound 6-2]	23.4 min
CC[C@@]1(O)C(=O)OCc2c1cc1n(c2=O)Cc2c-1nc1cc(F)c(C)c3c1c2[C@@H](NC(=O)[C@@H](O)C1CC1)CCC3 [Compound 11-2]	37.8 min

Looking for the measured half-life of CC[C@@]1(O)C(=O)OCc2c1cc1n(c2=O)Cc2c-1nc1cc(F)c(C3CC3)c3c1c2C(NC(=O)C[C@@H](C)O)CC3 (single isomer, unassigned) [Compound 17-2] , can you help?
98.4 min
